Value source: patent US20250099448A1

In this section, each of the molecules is paired with its reported IC50.
Target protein (sequence): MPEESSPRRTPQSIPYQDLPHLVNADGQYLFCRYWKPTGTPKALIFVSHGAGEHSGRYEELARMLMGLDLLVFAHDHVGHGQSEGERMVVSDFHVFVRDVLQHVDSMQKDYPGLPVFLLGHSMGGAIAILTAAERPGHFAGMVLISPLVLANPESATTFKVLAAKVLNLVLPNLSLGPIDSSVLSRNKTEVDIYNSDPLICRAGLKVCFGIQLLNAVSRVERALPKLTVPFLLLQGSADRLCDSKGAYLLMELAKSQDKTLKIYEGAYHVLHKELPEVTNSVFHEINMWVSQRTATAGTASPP
Give the value, in units of nM, as a plain number.

These solved cases illustrate the format of a correct answer.
[
  {
    "line notation": "CS(=O)(=O)c1cc(F)ccc1OC1CCC2(CC1)CN(C(=O)N1CC3(CC(c4nnc(C5CC5)[nH]4)C3)C1)C2",
    "quantity unit": "nM",
    "IC50": 8.86
  },
  {
    "line notation": "CS(=O)(=O)c1ccccc1C12CC(C3CN(C(=O)N4CC5(CC(c6nc(C7CC7)n[nH]6)C5)C4)C3)(C1)C2",
    "quantity unit": "nM",
    "IC50": 0.51
  },
  {
    "line notation": "CC(C)c1ccc(N(C)c2ccc(C3CN(C(=O)N4CC5(CC(c6nnc(C7CC7)[nH]6)C5)C4)C3)cn2)cc1",
    "quantity unit": "nM",
    "IC50": 21.4
  },
  {
    "line notation": "CN(c1ccccc1)c1ccc(C2CN(C(=O)N3CC4(CC(c5nnc(C6CC6)[nH]5)C4)C3)C2)cn1",
    "quantity unit": "nM",
    "IC50": 2.09
  },
  {
    "line notation": "O=C(N1CC2(CC(c3nnc(C4CC4)[nH]3)C2)C1)N1CC2(CN(Cc3cnn4ccccc34)C2)C1",
    "quantity unit": "nM",
    "IC50": 5.98
  },
  {
    "line notation": "CP1(=O)CCN(c2ccc(C3CN(C(=O)N4CC5(CC(c6nnc(C7CC7)[nH]6)C5)C4)C3)cn2)CC1",
    "quantity unit": "nM",
    "IC50": 179
  }
]

Shift focus to the following entry.
Challenge: Entry O=C(N1CC2(CC(Cn3cc(S(=O)(=O)C(F)(F)F)cn3)C2)C1)N1CC2(CC(c3nc(C4CC4)n[nH]3)C2)C1 : reported IC50 = ?
Response given: 0.28

---

Measurement record for MAGL protein (Homo sapiens); quantity recorded: pIC50.
As a rule, pIC50 stands for the negative log10 of the concentration, concentration in M.

Worked cases, pIC50 given:
[
  {
    "line notation": "O=C(N1CC(c2ccc(C3(C(F)(F)F)CC3)cn2)C1)N1CC2(CC(c3nc(C4(O)CC4)n[nH]3)C2)C1",
    "numeric value": 7.69
  },
  {
    "line notation": "O=C(N1CC(c2ccc(N3CC(C(F)(F)F)C3)cc2)C1)N1CC2(CC(c3nnc(C4CC4)[nH]3)C2)C1",
    "numeric value": 9.44
  },
  {
    "line notation": "O=C(N1CC(c2cnc(NCC3(C(F)(F)F)CC3)cn2)C1)N1CC2(CC(c3nc(C4(F)CC4)n[nH]3)C2)C1",
    "numeric value": 9.16
  }
]

Challenge: May I ask what pIC50 has been recorded for O=C(N1CC2(CC(Cc3ccc(F)cc3C(F)(F)F)C2)C1)N1CC2(CC(c3nc(C4COC4)n[nH]3)C2)C1 ?
Response given: 9.37

Challenge: Consider the molecule shown here: O=C(N1CC2(CC(Cc3cnc4cc(C(F)(F)F)nn4c3)C2)C1)N1CC2(CC(c3nc(C4CC4)n[nH]3)C2)C1 What is its recorded pIC50?
Response given: 9.22

Challenge: Entry O=C(N1CC2(CCC(Oc3ncc(C(F)(F)F)cn3)CC2)C1)N1CC2(CC(c3nnc(C4CC4)[nH]3)C2)C1 has what pIC50?
Response given: 8.72

Challenge: Request the reported pIC50 associated with O=C(N1CC(c2ccc(N3CC[C@H](C(F)(F)F)C3)nc2)C1)N1CC2(CC(c3nnc(C4CC4)[nH]3)C2)C1
Response given: 9.51
